Where do the numbers come from? From patent US20260116958A1.

Target: T1, inactive BoNT/G (BoNT/Gi) (Clostridium botulinum, UniProt Q60393 1-1297)
T1 sequence: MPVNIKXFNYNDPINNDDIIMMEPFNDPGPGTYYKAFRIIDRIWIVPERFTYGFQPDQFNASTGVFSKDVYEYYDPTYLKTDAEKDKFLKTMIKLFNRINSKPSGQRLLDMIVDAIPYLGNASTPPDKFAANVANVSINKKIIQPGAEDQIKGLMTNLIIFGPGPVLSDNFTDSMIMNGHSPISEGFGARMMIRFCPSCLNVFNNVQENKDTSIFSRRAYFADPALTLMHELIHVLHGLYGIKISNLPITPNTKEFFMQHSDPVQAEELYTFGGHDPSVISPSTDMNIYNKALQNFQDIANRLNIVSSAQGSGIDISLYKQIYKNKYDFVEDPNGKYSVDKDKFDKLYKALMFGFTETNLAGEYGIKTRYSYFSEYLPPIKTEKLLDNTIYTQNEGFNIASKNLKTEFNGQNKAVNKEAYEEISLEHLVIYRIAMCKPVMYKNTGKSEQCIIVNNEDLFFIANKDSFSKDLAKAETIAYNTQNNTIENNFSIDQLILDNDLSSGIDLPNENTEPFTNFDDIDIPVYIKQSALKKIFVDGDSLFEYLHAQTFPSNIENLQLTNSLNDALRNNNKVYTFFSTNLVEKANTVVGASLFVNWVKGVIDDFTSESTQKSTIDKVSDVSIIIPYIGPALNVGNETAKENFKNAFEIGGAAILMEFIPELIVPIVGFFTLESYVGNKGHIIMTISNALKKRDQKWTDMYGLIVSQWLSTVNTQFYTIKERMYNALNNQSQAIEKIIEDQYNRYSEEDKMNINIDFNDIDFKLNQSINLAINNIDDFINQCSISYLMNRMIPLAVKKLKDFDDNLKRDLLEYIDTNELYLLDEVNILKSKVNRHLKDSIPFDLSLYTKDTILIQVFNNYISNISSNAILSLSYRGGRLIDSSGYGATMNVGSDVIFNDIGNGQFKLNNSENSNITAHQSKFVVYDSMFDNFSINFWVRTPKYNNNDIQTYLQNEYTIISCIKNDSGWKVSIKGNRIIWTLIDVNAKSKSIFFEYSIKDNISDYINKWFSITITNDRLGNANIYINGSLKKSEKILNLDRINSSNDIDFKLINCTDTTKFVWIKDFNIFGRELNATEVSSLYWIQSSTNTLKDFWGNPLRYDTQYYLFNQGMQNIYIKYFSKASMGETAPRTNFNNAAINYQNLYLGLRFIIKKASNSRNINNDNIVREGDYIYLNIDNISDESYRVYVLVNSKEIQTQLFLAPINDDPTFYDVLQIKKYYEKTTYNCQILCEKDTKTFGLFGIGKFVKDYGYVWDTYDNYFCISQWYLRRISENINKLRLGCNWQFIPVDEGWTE
Assay: FACS, scFv on yeast
Reported log10 of Kd by item:
// units: nM (pre-log); metric: Kd; scale: log10

Examples with their reported log10 of Kd follow.
# binder, log10 of Kd
measured = [
    ("6G9 scFv (scFv, V domains shown) VH: EVQLQQSGDDLVKPGASVKMSCKASGYTFTSYWMHWVKQRPGQGLEWIGYINPSTGYTEYNQKFKDKATLTADKSSSTAYMQLSSLTSEDSAVYYCARGGNYVDYWGQGTTLTVSS VL: EIVLTQSPAIMSASPGEKVTISCSASSSVSYMYWYQQKPGSSPKPWIYRTSNLASGVPARFSGSGSGTSYSLTISSMEAEDAATYYCQQWSSNPYTFGGGTKLEIKR", 1.27),
    ("Hu6G11.3 scFv (scFv, V domains shown) VH: QVQLVQSGAEVAKPGASVKMSCKASGYTFTSYWMHWVRQAPGQGLEWIGYINPSTGYTEYNQKFKDRATLTADKSTSTAYMELSSLRSEDTAVYYCARGYFSFAYWGQGTLVTVSS VL: EIVLTQSPSTLSASIGDRVTITCRASEGIYHWLAWYQQKPGKAPKLLIYKASSLASGAPSRFSGSGSGTDFSLTISSLQPEDSATYFCQQAHSFPPTFGGGTKVDIKR", -0.49),
    ("hu6G11 scFv (scFv, V domains shown) VH: QVQLVQSGAEVAKPGASVKMSCKASGYTFTSYWMHWVRQAPGQGLEWIGYINPSTGYTEYNQKFKDRATLTADKSTSTAYMELSSLRSEDTAVYYCARGYFSFAYWGQGTLVTVSS VL: DIVMTQSPSSLSASVRDRVTITCQASHDIKNFLNWFQQKPGKAPKLLVYDASNLQVGVPSRFSASGYGTEFTLTISSLQPEDFATYYCQQANSFPRTFGQGTKVEIKR", 0.65),
    ("Hu6G11.1 scFv (scFv, V domains shown) VH: QVQLVQSGAEVAKPGASVKMSCKASGYTFTSYWMHWVRQAPGQGLEWIGYINPSTGYTEYNQKFKDRATLTADKSKSTAYMELSSLRSEDTAVYYCARGYFSFAYWGQGTLVTVSS VL: DIVMTQSPSSLSASVRDRVTITCQASHDIKNFLNWFQQKPGKAPKLLVYDASYLQVGVPSRFSASGYGTEFTLTISSLQPEDFATYYCQQANSFPRTFGQGTKVEIKR", -0.49),
    ("6G10 scFv (scFv, V domains shown) VH: EVQLQQSGPELVKPGASVKISCKASGYSFTGYFMHWVKQSHVKSLEWIGRINPYNGDIIYNQNFKDKASLTVDKSSSTAYMELHSLTSEDSAVYYCASLFGLYYFDYWGQGTTLTVSS VL: EIVLTQSPAIMSASPGEKVTMTCSASSSVSYMHWYQQKSGTSPKRWIYDTSKLASGVPARFSGSGSGTSYSLTISSMEAEDAATYYCQQWSSNPLTFGAGTKLELKR", 0.39),
]

Exercise: Record request: log10 of Kd value, item Hu6G10 scFv (scFv, V domains shown) VH: QVQLVQSGAEVKKPGATVKISCKASGYSFTGYFMHWVRQAPGKGLEWIGRINPYNGDIIYNQNFKDRATLTVDKSTSTAYMELSSLRSEDTAVYYCASLFGLYYFDYWGQGTTLTVSS VL: DVVMTQSPSSVSASVGDRVTITCRASQRISNHLNWYQQKPGKAPKRLIYAASSLESGVPSRFSGSGSGTEFTLTISSLQPEDFATYFCLQHNSYPYTFGQGTKVEIKR
Key: -0.28

Exercise: Record request: log10 of Kd value, item Hu6G11.2 scFv (scFv, V domains shown) VH: QVQLVQSGAEVAKPGASVKMSCKASGYTFTSYWMHWVRQAPGQGLEWIGYINPSTGYTEYNQKFKDRATLTADKSKSTAYMELSSLRSEDTAVYYCARGYFSFAYWGQGTLVTVSS VL: DIVMTQSPSSLSASVRDRVTITCQASHDIKNFLNWFQQKPGKAPKLLVYDASHLQVGVPSRFSASGYGTEFTLTISSLQPEDFATYYCQQANSFPRTFGQGTKVEIKR
Key: -0.25

Exercise: Record request: log10 of Kd value, item Hu6G7.1 scFv (scFv, V domains shown) VH: QVQLVQSGAEVKKPGASVKVSCKASDYSFTDYNIYWVRQTPGQGLEWIGYIDPYNGGTSYNQKFKGRATLTVDKSISTAYMELSRLRSDDTAVYYCALYGYDPDYIDYWGQGTTLTVSS VL: DIVLTQSPASMAVSPGQRVTITCSASSSVSYLHWFQQKPGQSPKLWIYSTSNLASGVPARFSGSGSGTDYTLTINPMEAEDTATYYCQQRSSYPYTFGQGTKLEIKR
Key: 0.51

Exercise: Record request: log10 of Kd value, item Hu6G7.2 scFv (scFv, V domains shown) VH: QVQLVQSGAEVKKPGASVKVSCKASDYSFTDYNIYWVRQTPGQGLEWIGYIDPYNGGTSYNQKFKGRATLTVDKSISTAYMELSRLRSDDTAVYYCALYGYDPDYTEYWGQGTTLTVSS VL: DIVLTQSPASMAVSPGQRVTITCSASSSVSYLHWFQQKPGQSPKLWIYSTSNLASGVPARFSGSGSGTDYTLTINPMEAEDTATYYCQQRSSYPYTFGQGTKLEIKR
Key: 0.15

Exercise: Record request: log10 of Kd value, item 6G7.1 scFv (scFv, V domains shown) VH: DVQLQESGPELVKPGASVKVSCKASDYSFTDYNIYWVKQSHGKSLEWIGYIDPYNGGTSYNQKFKGKATLTVDKSSSTAFMYLNSLTSEDSAVYYCALYGYDPDYIDYWGQGTTLTVSS VL: QIVLTQSPAIMSASPGEKVTITCSASSSVSYLHWFQQKPGTSPKLWIYSTSNLASGVPARFSGSGSGTSYSLTISRMEAEDAATYYCQQRSSYPYTFGGGTKLEIKA
Key: -0.57
